# System: PC-3 prostate
# measurementNotes: NCI tumour cell line growth inhibition, 48 h
Give TGI for every item shown.
Answers are plain numbers, in µM.

- compound: "O=C(O)C1C(C(=O)Nc2ccc3c(c2)Cc2ccccc2-3)C2(Cl)C(Cl)=C(Cl)C1(Cl)C2(Cl)Cl (centres undefined)"
  measurementType: "TGI"
  measuredNumber: 30

[Q] Could you please provide reported TGI for CC1OC(OC2C(O[C@H]3CC[C@@]4(C)[C@@H](CC[C@@H]5[C@@H]4CC[C@]4(C)[C@@H]6[C@H](C[C@@H]54)O[C@]4(CC[C@@H](C)CO4)[C@H]6C)C3)OC(CO)C(OC3OC(CO)C(O)C(OC4OCC(O)C(O)C4O)C3OC3OCC(O)C(O)C3O)C2O)C(O)C(O)C1O (some centres undefined) ? Thanks!
[A] 1.8

Where these numbers come from: PubChem BioAssay (NCI)
